Where do the numbers come from? From ChEMBL document CHEMBL4406884.

- MEASURED_ON: Alpha-1A adrenergic receptor (Homo sapiens, UniProt P35348)
- Sequence (P35348 whole entry): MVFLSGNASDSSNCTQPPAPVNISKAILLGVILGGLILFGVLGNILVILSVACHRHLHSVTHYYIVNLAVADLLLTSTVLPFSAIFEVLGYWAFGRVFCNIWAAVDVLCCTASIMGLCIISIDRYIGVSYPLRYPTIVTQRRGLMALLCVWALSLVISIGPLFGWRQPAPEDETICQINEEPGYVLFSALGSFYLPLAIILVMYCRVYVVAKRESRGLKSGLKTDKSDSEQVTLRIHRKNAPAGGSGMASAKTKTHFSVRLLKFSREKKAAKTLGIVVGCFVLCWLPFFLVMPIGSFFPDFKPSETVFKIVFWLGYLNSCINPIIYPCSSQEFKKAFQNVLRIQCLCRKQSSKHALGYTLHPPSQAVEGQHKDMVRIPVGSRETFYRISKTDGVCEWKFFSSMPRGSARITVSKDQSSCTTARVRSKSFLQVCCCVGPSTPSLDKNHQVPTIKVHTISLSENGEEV
pKi: −log10 of the molar value.
MEASUREMENT_NAME: pKi

Look up and report measured pKi for this entry: "O=C1c2ccccc2C(Cc2ccnc(F)c2)(Cc2ccnc(F)c2)c2ccccc21"
5.51 to 5.96
